System: PDE1C (Homo sapiens, UniProt Q14123) | Read-out: pIC50 | Origin: multiple publications
pIC50: −log10 of the molar value.
Decision: pIC50 compared against 7; not below it gives Satisfied, below it gives Not satisfied.

Known results for compounds:
[[record]]
compound = "CCOc1cnccc1-c1cc(NCc2ncn(C)n2)c2c(C(C)C)nn(C)c2n1"
category = "Satisfied"

[[record]]
compound = "Cc1c(C)n2c(C3(C4CC4)CC3)nnc2c(=O)n1CC1CCCCO1 (racemic)"
category = "Satisfied"

[[record]]
compound = "CCOc1ncccc1-c1cc(NC(C)C)c2c(cnn2C(C)C)n1"
category = "Not satisfied"

[[record]]
compound = "CC(C)n1ncc2nc(Cc3ccc(F)cc3)cc(N[C@@H]3CCOC3)c21"
category = "Not satisfied"

[[record]]
compound = "Cc1ccccc1Cn1c(C)nn2c(C3CCOCC3)ncc2c1=O"
category = "Satisfied"


Evaluate CCCOc1ncccc1-c1cc(NCc2ncn(C)n2)c2c(C(C)C)nc(C)n2n1 : pIC50 at minimum 7?
Satisfied

Same thing, different compound: Cc1nn(C(C)C)c2c3cc(nc12)-c1cccnc1OCCCCOc1ncccc1CN3
Satisfied

----------
System: PDE1C (Homo sapiens, UniProt Q14123) | Read-out: log10(IC50) | Origin: multiple publications
// stored as log10 of IC50 expressed in nM

Entry CCN(c1ncnc2c(OC)c(OC)ccc12)[C@@H]1CCOC1 has what log10(IC50)?
3.18

Same thing, different compound: Cc1nn(C(C)C)c2c3cc(nc12)-c1cccnc1OCCCCOc1cccnc1CN3
0.59

Same thing, different compound: COc1nccnc1-c1cc(NCc2ncn(C)n2)c2c(C(C)C)nn(C)c2n1
0.81

Same thing, different compound: Cn1c(Cc2ccc(-c3cccc(C(F)F)n3)cc2)cn2c(C3CCOCC3)ncc2c1=O
1.94

----------
System: PDE1C (Homo sapiens) | Read-out: pIC50 | Origin: multiple publications
Lab note: report pIC50 as minus log10 of the concentration in molar units, number only.

Consider the following illustrative entries.
[[record]]
molecule = "CCOc1ncccc1-c1cc(NCc2coc(C)n2)c2c(C(C)C)nc(C)n2n1"
meas_value = 7.54

[[record]]
molecule = "CCOc1ncccc1-c1cc(NCc2cn(C)nn2)c2c(C(C)C)nn(C)c2n1"
meas_value = 7.48

[[record]]
molecule = "CCOc1ncccc1-c1cc(NCc2ccn(C)n2)c2c(C(C)C)nn(C)c2n1"
meas_value = 7.44

[[record]]
molecule = "Cc1cn2c(C3CCOCC3)ncc2c(=O)n1Cc1ccc2c(c1)OCO2"
meas_value = 7.42

[[record]]
molecule = "Cc1nn2c(C3CCOCC3)ncc2c(=O)n1Cc1ccccc1"
meas_value = 7.77


Entry COc1ccc(Cn2c(C)cn3c(C4CCOCC4)ncc3c2=O)cc1 has what pIC50?
7.72

Same thing, different molecule: Cc1nn2c(C3CCOCC3)ncc2c(=O)n1Cc1cccc(Cl)c1
7.85

Same thing, different molecule: CCn1c(Cc2ccc(-c3ccccn3)cc2)cn2c(C3CCOCC3)ncc2c1=O
7.59

Same thing, different molecule: CCOc1nnccc1-c1cc(NCc2cnn(C)c2)c2c(C(C)C)nc(C)n2n1
7.60

----------
System: PDE1C (Homo sapiens, UniProt Q14123) | Read-out: IC50 | Origin: multiple publications
The figure you give is taken to be in nM; do not add the unit.

[[record]]
molecule = "CCOc1ncccc1-c1cc(NCc2ccccn2)c2c(C(C)C)nc(C)n2n1"
target_or_system = "PDE1C (Homo sapiens, UniProt Q14123)"
meas_value = 190

[[record]]
molecule = "CCOc1ncccc1-c1ccn2c(C3(C)COC3)nc(C)c2n1"
target_or_system = "PDE1C (Homo sapiens, UniProt Q14123)"
meas_value = 730

[[record]]
molecule = "Cc1nn(C(C)C)c2c3cc(nc12)-c1cccnc1OCCCOc1ncccc1CN3"
target_or_system = "PDE1C (Homo sapiens, UniProt Q14123)"
meas_value = 69

[[record]]
molecule = "CCOc1ncccc1-c1ccc2c(n1)c(C)nn2C(C)C"
target_or_system = "PDE1C (Homo sapiens, UniProt Q14123)"
meas_value = 180

[[record]]
molecule = "CCOc1ncccc1-c1cc(NCc2cnn(C)c2)c2c(C(C)CC)nc(C)n2n1 (single isomer, unassigned; (-))"
target_or_system = "PDE1C (Homo sapiens, UniProt Q14123)"
meas_value = 32


Entry CCCCn1c(=O)c2nnc(C3(C)CC3)n2c2ncc(CC)cc21 has what IC50?
2.14

Same thing, different molecule: COc1ncc(C#N)cc1-c1cc(N[C@@H]2CCOC2)c2c(cnn2C(C)C)n1
2400

Same thing, different molecule: Cc1cn2c(C3CCOCC3)ncc2c(=O)n1CC1CCCC1
17

----------
System: PDE1C (Homo sapiens, UniProt Q14123) | Read-out: pIC50 | Origin: multiple publications
Lab note: report pIC50 as minus log10 of the concentration in molar units, number only.

Entry Cc1cc(Cn2c(C)cn3c(C4CCOCC4)ncc3c2=O)on1 has what pIC50?
5.79

Same thing, different molecule: CCOc1cnccc1-c1cc(NCc2cnn(C)c2)c2c(C(C)C)nc(C)n2n1
7.55

Same thing, different molecule: Cn1c(Cc2ccc(-c3ccccn3)cc2)cn2c(C3CCOCC3)ncc2c1=O
6.92

Same thing, different molecule: CCOC(=O)c1cc(-c2ccccc2)n(-c2cccc([N+](=O)[O-])c2)c1C
4.66

Same thing, different molecule: CCOc1ncccc1-c1nc2c(C)nn(CC)c2cc1C
5.72

----------
System: PDE1C (Homo sapiens, UniProt Q14123) | Read-out: pIC50 | Origin: multiple publications
pIC50: −log10 of the molar value.
Measured pIC50 determines class: class A: < 6; class B: ≥ 6 and < 7; class C: ≥ 7

Known results for compounds:
[[record]]
compound = "CCOc1ncccc1-c1cc(N[C@@H]2CCOC2)c2c(cnn2CC)n1 (single isomer, unassigned)"
category = "class A"

[[record]]
compound = "COc1ccc(Cn2c(C)cn3c(C4CCNC(=O)CC4)ncc3c2=O)cc1 (stereo not drawn)"
category = "class B"

[[record]]
compound = "CCc1cn2c(C3CCOCC3)ncc2c(=O)n1Cc1cccc(F)c1"
category = "class C"

[[record]]
compound = "COc1ccc(Cn2c(C)cc3c(cnn3C3CCCOC3)c2=O)cc1 (stereo not drawn)"
category = "class B"


Lab note: which band did Cc1cn2c(C3CCOCC3)ncc2c(=O)n1CC1CCCCC1 land in?
class C

Same thing, different compound: CCOc1ncccc1-c1cc(NCc2cccnc2C(F)(F)F)c2c(C(C)C)nn(C)c2n1
class B

Same thing, different compound: Cc1ccccc1Cn1c(C)cn2c(C3CCOCC3)ncc2c1=O
class C

Same thing, different compound: CCOc1ncccc1-c1cc(NCc2cccc3nccn23)c2c(C(C)C)nc(C)n2n1
class C

Same thing, different compound: Cc1cn2c(C3CCOCC3)ncc2c(=O)n1Cc1cscn1
class B

Same thing, different compound: CCOc1ncccc1-c1cc(NCc2ncn(C)n2)c2c(C(C)C)nn(C)c2n1
class C

Same thing, different compound: CCOc1ncccc1-c1cc(NCc2cccnc2OC)c2c(C(C)C)nc(C)n2n1
class C

Same thing, different compound: CC(C)n1ncc2nc(-c3ccccc3)cc(N[C@@H]3CCOC3)c21
class A

----------
System: PDE1C (Homo sapiens) | Read-out: IC50 | Origin: multiple publications

Consider the following illustrative entries.
[[record]]
compound = "CCCCn1c(=O)c2nnc(C3(C4CC4)CC3)n2c2ncc(C)cc21"
target_or_system = "PDE1C (Homo sapiens)"
meas_value = "< 0.508 nM"

[[record]]
compound = "Cc1ccc(Cc2nn3c(C4CCOCC4)ncc3c(=O)n2CC(C)C)cc1"
target_or_system = "PDE1C (Homo sapiens)"
meas_value = "38 nM"

[[record]]
compound = "COc1ccc(Cn2c(C)cn3c(C(C)(C)O)ncc3c2=O)cc1"
target_or_system = "PDE1C (Homo sapiens)"
meas_value = "214 nM"

[[record]]
compound = "Cc1cc2c(cnn2C2CCOCC2)c(=O)n1Cc1ccc(Cl)cc1"
target_or_system = "PDE1C (Homo sapiens)"
meas_value = "419 nM"


Shifting focus to the compound that follows.
What measured IC50 is associated with COc1ccc2c(N[C@@H]3CCO[C@H]3C3CC3)ncnc2c1OC (relative stereo) on PDE1C (Homo sapiens)?
1300 nM

----------
System: PDE1C (Homo sapiens, UniProt Q14123) | Read-out: pIC50 | Origin: multiple publications
Lab note: report pIC50 as minus log10 of the concentration in molar units, number only.

Consider the following illustrative entries.
[[record]]
compound = "CCOc1ncccc1-c1cc(NCc2nc(C)no2)c2c(C(C)C)nc(C)n2n1"
target_or_system = "PDE1C (Homo sapiens, UniProt Q14123)"
value_kind = "pIC50"
meas_value = 7.85

[[record]]
compound = "O=c1c2cnc(C3CCOCC3)n2cc(Cc2ccccc2)n1CC1CCCCC1"
target_or_system = "PDE1C (Homo sapiens, UniProt Q14123)"
value_kind = "pIC50"
meas_value = 8.22

[[record]]
compound = "Cc1cc2c(cnn2C2CCOCC2)c(=O)n1Cc1cccc(F)c1"
target_or_system = "PDE1C (Homo sapiens, UniProt Q14123)"
value_kind = "pIC50"
meas_value = 6.83

[[record]]
compound = "CCOc1ncccc1-c1cc(NCC2CCC(=O)N2C)c2c(n1)c(C)nn2C(C)C (racemic)"
target_or_system = "PDE1C (Homo sapiens, UniProt Q14123)"
value_kind = "pIC50"
meas_value = 6.97

[[record]]
compound = "Cn1c(Cc2ccc(-c3ccccn3)cc2)nc2c(cnn2C2CCOCC2)c1=O"
target_or_system = "PDE1C (Homo sapiens, UniProt Q14123)"
value_kind = "pIC50"
meas_value = 6.28


What measured pIC50 is associated with CCOc1ncccc1-c1cc(NCc2ccnc(OC)c2)c2c(C(C)C)nc(C)n2n1 on PDE1C (Homo sapiens, UniProt Q14123)?
8.05

Same thing, different compound: Cc1cn2c(C3CCOCC3)ncc2c(=O)n1Cc1ccc(OC2CC2)cc1
6.44

Same thing, different compound: COc1ccc(Cn2c(C)cn3c(N4CCOC[C@H]4C)ncc3c2=O)cc1
6.66

Same thing, different compound: CCOc1ncccc1-c1cc(NC2CCOC2)c2c(cnn2C2CCOC2)n1 (stereo not drawn)
6.39

Same thing, different compound: Cc1ccc(Cc2nn3c(C4CCOCC4)ncc3c(=O)n2CC2CCCCC2)cc1
7.96

Same thing, different compound: Cc1nn2c(C3CCOCC3)ncc2c(=O)n1Cc1cccc(F)c1
7.54

Same thing, different compound: CCOc1ncccc1-c1cc(NCc2cn[nH]c2)c2c(C(C)C)nc(C)n2n1
7.80

Same thing, different compound: CCOc1ncccc1-c1cc(NCc2cnn(C)n2)c2c(C(C)C)nc(C)n2n1
7.62

Same thing, different compound: COc1ccc2c(NC3CCOC3)ncnc2c1OC (racemic)
6.23

Same thing, different compound: CCOc1ncccc1-c1cc(NCC2CC(=O)N(C)C2)c2c(n1)c(C)nn2C(C)C (stereo not drawn)
7.06

Same thing, different compound: CCOc1ncccc1-c1cc(NCc2ncc(F)cn2)c2c(C(C)C)nc(C)n2n1
6.96
